Species on record: Homo sapiens
assay-name: Displacement of [3H]methylspiperone form human cloned dopamine 4.2 receptor
The source made the active and inactive calls. The rule behind the calls is not given here.

chemical-structure	Activity
COc1ccc2c(c1)C[C@]1(C)[C@@H](C)CC[C@H]3C(C)(C)CCC[C@]31O2	inactive
C[C@H]1CC[C@H]2C(C)(C)CCC[C@]23Oc2ccc(OC(=S)N(C)C)cc2C[C@]13C	inactive
O=C1C(=O)c2[nH]cc3c2C(=C1Br)NCC3	inactive

====

test-target: UniProtKB P28335
Sequence (P28335 whole entry): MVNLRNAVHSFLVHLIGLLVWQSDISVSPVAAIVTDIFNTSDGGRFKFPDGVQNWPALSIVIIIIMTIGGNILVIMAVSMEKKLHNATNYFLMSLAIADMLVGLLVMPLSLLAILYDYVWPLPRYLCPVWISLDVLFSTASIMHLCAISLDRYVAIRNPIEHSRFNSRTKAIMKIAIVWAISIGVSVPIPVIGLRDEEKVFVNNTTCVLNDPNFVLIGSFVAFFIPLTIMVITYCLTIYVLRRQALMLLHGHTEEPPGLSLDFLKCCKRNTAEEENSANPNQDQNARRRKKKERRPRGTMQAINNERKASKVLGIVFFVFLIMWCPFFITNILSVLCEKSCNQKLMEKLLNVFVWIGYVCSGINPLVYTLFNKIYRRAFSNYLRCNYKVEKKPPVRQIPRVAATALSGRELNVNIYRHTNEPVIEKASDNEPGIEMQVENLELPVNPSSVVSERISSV
assay-name: Displacement of [3H]mesulergine form human cloned 5HT2C receptor expressed in african green monkey COS7 cells by scintillation spectroscopy
Format: cell-based, COS-7
result-type: Ki (nM)
Just the number in nM, nothing appended.

// query Any idea what its Ki is? The molecule is `CN1C(=N)N/C(=C/c2c[nH]c3cc(Br)ccc23)C1=O`
// result 2300

// query # Ki lookup, item `CN1C(=N)N(C)/C(=C/c2c[nH]c3cc(Br)ccc23)C1=O`
// result 330

// query Need Ki of `CC/N=C1\N(C)C(=O)/C(=C\c2c[nH]c3ccccc23)N1C` , thanks.
// result 3500
